# pIC50 annotations
- target.desc: Cathepsin S (UniProt P25774)
- protocol.notes: Cathepsin enzyme inhibition assay (fluorogenic peptide substrate Z-Val-Val-Arg-AMC), Cathepsin S
- Format: biochemical, human and mouse
- recorded.conditions: enzyme 1 nM, substrate 20 μM, pH 6.5; read-out: CatS IC50
Friendly reminder that pIC50 comes from taking -log10 of the concentration in mol/L.

>  <compound>
Cc1cc(N2C[C@H](S(=O)(=O)c3ccc(-n4cccn4)cc3Cl)C[C@H]2C(=O)NC2(C#N)CC2)n(C2CCC2)n1 [Example 491]

>  <experimental.result>
9.18

$$$$
>  <compound>
CC(C)(C)OC(=O)N1C[C@@H](S(=O)(=O)c2ccccc2C(F)(F)F)C[C@H]1C(=O)NC1(C#N)CC1 [Example 158]

>  <experimental.result>
6.92

$$$$

Here is the next item to consider.
So, COc1cccc(-n2nc(C)cc2N2C[C@H](S(=O)(=O)c3ccccc3C(F)(F)F)C[C@@H]2C(=O)NC2(C#N)CC2)c1 [Example 334] ? Its pIC50 was 6.11

====

- target.desc: UniProtKB P07711
- protocol.notes: Cathepsin enzyme inhibition assay (fluorogenic peptide substrate Z-Val-Val-Arg-AMC), Cathepsin L
- Format: biochemical, human and mouse
- recorded.conditions: enzyme 1 nM, substrate 20 μM, pH 6.5; read-out: CatL IC50
Structures can show the parent of a compound that is named as a salt.
pIC50 by entry:
To interpret pIC50, take it as minus log10 of a concentration measured in moles per litre.

>  <compound>
CC(C)C(=O)N1C[C@H](S(=O)(=O)c2ccc(Cl)cc2Cl)C[C@H]1C(=O)NC1(C#N)CC1 [Example 226]

>  <pIC50>
4.87

$$$$
>  <compound>
CCN1CCN(c2ccc(S(=O)(=O)[C@@H]3C[C@@H](C(=O)NC4(C#N)CC4)N(c4ncccc4C(F)(F)F)C3)c(Cl)c2)CC1 [Example 190]

>  <pIC50>
5.29

$$$$
>  <compound>
Cc1cc(N2C[C@H](S(=O)(=O)c3ccc(N4CC(F)(F)C4)cc3Cl)C[C@H]2C(=O)NC2(C#N)CC2)n(CCc2ccccc2)n1 [Example 483]

>  <pIC50>
6.28

$$$$
>  <compound>
N#CC1(NC(=O)[C@@H]2C[C@@H](S(=O)(=O)c3ccc(N4CCC(F)(F)CC4)cc3Cl)CN2C(=O)C2(C(F)(F)F)CC2)CC1 [Example 157]

>  <pIC50>
5.36

$$$$
>  <compound>
Cc1cc(N2C[C@H](S(=O)(=O)c3ccc(F)cc3C(F)(F)F)C[C@H]2C(=O)NC2(C#N)CC2)n(-c2ccnc(Cl)c2)n1 [Example 266]

>  <pIC50>
4.65

$$$$
>  <compound>
CC(C(=O)N1C[C@H](S(=O)(=O)c2ccccc2Cl)C[C@H]1C(=O)NC1(C#N)CC1)c1ccc(Cl)cc1 (some centres unmarked) [Example 430]

>  <pIC50>
5.59

$$$$

Measured pIC50 (UniProtKB P07711), entry N#CC1(NC(=O)[C@@H]2C[C@@H](S(=O)(=O)c3ccc(OCC(F)(F)F)cc3Cl)CN2C(=O)Cc2ccc(Cl)cc2)CC1 [Example 244] : 5.23

# CCN1CCN(c2ccc(S(=O)(=O)[C@@H]3C[C@@H](C(=O)NC4(C#N)CC4)N(C=O)C3)c(Cl)c2)CC1 [Example 143] with UniProtKB P07711: pIC50 is 4.55

Value sought: pIC50, system UniProtKB P07711, item N#CC1(NC(=O)[C@@H]2C[C@@H](S(=O)(=O)c3ccc(OCC(F)(F)F)cc3Cl)CN2C(=O)C2(c3ccc(F)cc3)CC2)CC1 [Example 295] . Result: 6.03

Reported pIC50 (UniProtKB P07711) for entry N#CC1(NC(=O)[C@@H]2C[C@@H](S(=O)(=O)c3ccccc3Cl)CN2C(=O)C2(C(F)(F)F)CC2)CC1 [Example 213] is 5.10

GET /values?item= Cc1ccc(S(=O)(=O)[C@H]2CN[C@H](C(=O)NC3(C#N)CC3)C2)c(C)c1 [Example 49, Hydrochloride] &system= UniProtKB P07711 returns pIC50: 5.16

// pIC50 (UniProtKB P07711) for N#CC1(NC(=O)[C@@H]2C[C@@H](S(=O)(=O)c3ccccc3Cl)CN2C(=O)Cn2ccc(C(F)(F)F)n2)CC1 [Example 422] = 5.36

For CC(C(=O)N1C[C@H](S(=O)(=O)c2ccccc2Cl)C[C@H]1C(=O)NC1(C#N)CC1)c1ccc(Cl)cc1 (some centres unmarked) [Example 431] on UniProtKB P07711, measured pIC50 was 6.89

Record CC1(C(=O)N2C[C@H](S(=O)(=O)c3ccc(-c4ccnc(Cl)c4)cc3C(F)(F)F)C[C@H]2C(=O)NC2(C#N)CC2)CC1 [Example 258] has UniProtKB P07711 pIC50 equal to 4.24

// returns pIC50 for N#CC1(NC(=O)[C@@H]2C[C@@H](S(=O)(=O)c3ccc(Cl)cc3Cl)CN2c2ncccc2C(F)(F)F)CC1 [Example 188] with UniProtKB P07711; value = 4.78

Reading of pIC50 for N#CC1(NC(=O)[C@@H]2C[C@@H](S(=O)(=O)c3ccc(-n4cccn4)cc3Cl)CN2C(=O)C2(c3ccc(Cl)nc3)CC2)CC1 [Example 380] with UniProtKB P07711: 6.89

====

- target.desc: Cathepsin S (UniProt P25774)
- protocol.notes: Cathepsin enzyme inhibition assay (fluorogenic peptide substrate Z-Val-Val-Arg-AMC), Cathepsin S
- Format: biochemical, human and mouse
- recorded.conditions: enzyme 1 nM, substrate 20 μM, pH 6.5; read-out: CatS IC50
assay.readout: pIC50
Bear in mind: pIC50 is minus log10 of a mol/L concentration; give just that figure.

Some solved cases for reference:
>  <compound>
CC(=O)N[C@H]1CC[C@H](CC(=O)N2C[C@H](S(=O)(=O)c3ccc(OCC(F)(F)F)cc3Cl)C[C@H]2C(=O)NC2(C#N)CC2)CC1 [Example 274]

>  <pIC50>
9.03

$$$$
>  <compound>
Cc1cc(N2C[C@H](S(=O)(=O)c3ccc(OCC(F)(F)F)cc3C(F)(F)F)C[C@H]2C(=O)NC2(C#N)CC2)n(-c2ccc(C(F)(F)F)cc2)n1 [Example 306]

>  <pIC50>
9.26

$$$$

// moving on: another record for pIC50
Data point: N#CCNC(=O)[C@@H]1C[C@@H](S(=O)(=O)c2ccccc2Cl)CN1C(=O)c1ccccc1 [Example 58] ; pIC50 = 8.80

====

- target.desc: Cat L (UniProt P07711)
- protocol.notes: Cathepsin enzyme inhibition assay (fluorogenic peptide substrate Z-Val-Val-Arg-AMC), Cathepsin L
- Assay type: biochemical, human and mouse
- recorded.conditions: enzyme 1 nM, substrate 20 μM, pH 6.5; read-out: CatL IC50
assay.readout: pIC50
# pIC50 = -log10(concentration in molar units)

>  <molecule>
CCC(=O)N1C[C@H](S(=O)(=O)c2ccccc2Cl)C[C@H]1C(=O)NCC#N

>  <experimental.result>
4.65

$$$$

Data point: N#CC1(NC(=O)[C@@H]2C[C@@H](S(=O)(=O)c3ccc(OCC(F)(F)F)cc3Cl)CN2C(=O)C2(C#N)CC2)CC1 ; pIC50 = 4.91

Please fill in: pIC50 reported for COc1cccc(-n2nc(C)cc2N2C[C@H](S(=O)(=O)c3ccccc3C(F)(F)F)C[C@H]2C(=O)NC2(C#N)CC2)c1 = 5.10

For reference, reported pIC50 for N#CCNC(=O)C12CC(S(=O)(=O)c3ccccc3)CN1CC(F)(F)C2 (stereo not shown) stands at 5.46

====

- target.desc: UniProt:P25774
- protocol.notes: Cathepsin enzyme inhibition assay (fluorogenic peptide substrate Z-Val-Val-Arg-AMC), Cathepsin S
- Format: biochemical, human and mouse
- recorded.conditions: enzyme 1 nM, substrate 20 μM, pH 6.5; read-out: CatS IC50
Param label: returns 1 when IC50 < 0.2 nM, returns 0 otherwise, including exact equality.

>  <compound>
Cc1cc(N2C[C@H](S(C)(=O)=O)C[C@H]2C(=O)NC2(C#N)CC2)n(CCc2ccccc2)n1 [Example 448]

>  <assigned.label>
0

$$$$
>  <compound>
COCCOc1ccc(S(=O)(=O)[C@@H]2CC(C(=O)NC3(C#N)CC3)N(C(=O)C3(c4ccc(Cl)nc4)CC3)C2)c(Cl)c1 (stereo partly shown) [Example 378]

>  <assigned.label>
1

$$$$
>  <compound>
N#CC1(NC(=O)[C@@H]2C[C@@H](S(=O)(=O)c3ccc(OC4COC4)cc3Cl)CN2)CC1 [Example 181]

>  <assigned.label>
0

$$$$
>  <compound>
N#CC1(NC(=O)[C@@H]2C[C@@H](S(=O)(=O)c3ccc(OCC(F)(F)F)cc3Cl)CN2C(=O)C2(c3ccc(Cl)cc3)CCC2)CC1 [Example 278]

>  <assigned.label>
1

$$$$
>  <compound>
Cc1cc(N2C[C@H](S(=O)(=O)c3ccccc3Cl)C[C@H]2C(=O)NC2(C#N)CC2)n(CCCc2ccccc2)n1 [Example 474]

>  <assigned.label>
0

$$$$

Now, please, on to the next compound.
[ask] is_below(IC50, 0.2 nM) for N#CC1(NC(=O)[C@@H]2C[C@@H](S(=O)(=O)c3ccc(F)cc3F)CN2C(=O)C2(c3ccc(Cl)cc3)CC2)CC1 [Example 235] ?
[reply] 0
